experiment: Log P by HPLC on reversed phase columns (EEC directive 79/831 Annex V.A8); format: physicochemical; conditions: method [a]
Measured Attribute: LogP

Sample answers from the record:
O=C(NC1(C(=O)OC2CCC2)CC1)c1sc(Br)c(Cl)c1F [1.0592]; 3.72^[a]
COC(=O)CNC(=S)c1sc(Br)c(Br)c1F [1.0538]; 3.74^[a]
COC(=O)C(C)(C)NC(=O)c1sc(Br)c(Br)c1C#N [1.0801]; 2.81^[a]
N#CC1(NC(=O)c2sc(Br)c(Br)c2Cl)CCSCC1 [1.0868]; 3.71^[a]
COC(=O)C1(NC(=O)c2sc(Br)c(Br)c2Cl)CC(C)(C)C1 [1.0618]; 4.52^[a]
CC(C)C(C#N)NC(=O)c1sc(Br)c(Br)c1Cl (centres unmarked) [1.0874]; 3.88^[a]
CCOC(=O)C(Cc1ccccc1)NC(=O)c1sc(Cl)c(Br)c1F (centres unmarked) [1.0640]; 4.50^[a]
CCOC(=O)C1(NC(=O)c2sc(Br)c(C(F)F)c2Br)CC1 [1.0648]; 3.05^[a]
CCOC(=O)C(CO)NC(=O)c1sc(C#N)c(Br)c1C (centres unmarked) [1.0834]; 2.16^[a]
COC(=O)CNC(=S)c1sc(Cl)c(Cl)c1Br [1.0851]; 4.09^[a]

Each of the following entries comes with a recorded value; kindly state LogP for each.
1. CCOC(=O)C(Cc1ccccc1)NC(=O)c1sc(Br)c(Cl)c1Cl (centres unmarked) [1.0204]
2. COC(=O)C1(NC(=O)c2sc(Cl)c(Br)c2F)CC1 [1.0603]
3. COC(=O)C1(NC(=O)c2sc(C)c(Cl)c2Cl)CC1 [1.0897]
4. CCOC(=O)C(Cc1ccccc1)NC(=O)c1sc(Cl)c(Br)c1Cl (centres unmarked) [1.0187]
5. CCCOC(=O)C1(NC(=O)c2sc(Cl)c(Br)c2C)CC1 [1.0625]
6. Cc1c(C(=O)NC(C(=O)O)C2CC2)sc(Cl)c1Br (centres unmarked) [1.0255]
7. O=C(NC(C(=O)OC1CCC1)C1CC1)c1sc(Cl)c(Cl)c1Br (centres unmarked) [1.0903]
8. N#CC1(NC(=O)c2sc(Br)c(Br)c2F)CCSCC1 [1.0871]

5.00^[a]
2.70^[a]
2.67^[a]
5.04^[a]
3.62^[a]
2.67^[a]
5.08^[a]
3.40^[a]

Each of the following entries comes with a recorded value; kindly state LogP for each.
1. O=C(NC1(C(=O)OC2CCC2)CC1)c1sc(Cl)c(Br)c1Cl [1.0597]
2. COC(=O)CNC(=O)c1sc(C#N)c(Br)c1C [1.0241]
3. CCOC(=O)C1(NC(=O)c2sc(C#N)c(Cl)c2C)CC1 [1.0258]
4. COC(=O)C[C@H](NC(=O)c1sc(Br)c(Br)c1F)C(=O)OC [1.0555]
5. CCOC(=O)[C@H](CO)NC(=O)c1sc(Br)c(Br)c1Cl [1.0817]
6. CCOC(=O)CNC(=O)c1sc(Cl)c(C#N)c1Br [1.0653]

4.15^[a]
2.14^[a]
2.57^[a]
2.99^[a]
2.84^[a]
2.58^[a]

Each of the following entries comes with a recorded value; kindly state LogP for each.
1. CCOC(=O)C(NC(=O)c1sc(C#N)c(Br)c1Cl)C(C)C (centres unmarked) [1.0588]
2. N#CC1(NC(=O)c2sc(Br)c(Br)c2Cl)CCC1 [1.0873]

1: 3.92^[a]; 2: 3.35^[a]

Each of the following entries comes with a recorded value; kindly state LogP for each.
1. COC(=O)CNC(=O)c1sc(Cl)c(Br)c1F [1.0635]
2. CCOC(=O)C(CCSC)NC(=O)c1sc(Br)c(Br)c1C#N (centres unmarked) [1.0794]
3. O=C(CNC(=O)c1sc(Br)c(Br)c1F)Oc1ccccc1 [1.0863]
4. O=C(NC1(C(=O)OCC2CC2)CCC1)c1sc(Br)c(Br)c1F [1.0924]
5. CCOC(=O)C1(NC(=S)c2sc(Cl)c(Br)c2Cl)CCC1 [1.0853]
6. COC(=O)C(NC(=O)c1sc(Br)c(Br)c1Cl)C1CC1 (centres unmarked) [1.0264]
7. CCOC(=O)C(NC(=O)c1sc(Br)c(Cl)c1Cl)C(C)C (centres unmarked) [1.0200]

1: 2.49^[a]; 2: 3.51^[a]; 3: 3.58^[a]; 4: 4.33^[a]; 5: 5.04^[a]; 6: 3.84^[a]; 7: 4.89^[a]

Each of the following entries comes with a recorded value; kindly state LogP for each.
1. CCCOC(=O)C1(NC(=O)c2sc(Cl)c(Br)c2C#N)CC1 [1.0631]
2. COC(=O)C1(NC(=O)c2sc(C#N)c(Cl)c2Cl)CC1 [1.0573]

["3.06^[a]", "2.40^[a]"]
